# Test system: HT29
# test_summary: MTT assay, growth inhibition by HDACi after 48 h
# Format: cell-based
# condition: Homo sapiens, HT-29, HT29, 48 h of treatment
# From the text: HT29, HCT116, SW480, SW620 colon adenocarcinomas cell lines, 911 human embryonic retinal cell lines and HEK293, a human embryonic kidney cell line expressing the adenoviral E1 protein were purchased from ATCC (American Tissue Culture Collection, Manassas, Va., USA). HT29 and 911 were maintained in Dulbecco's modified Eagle's medium (DMEM; GIBCO) supplemented with 10% heat-inactivated fetal bovine serum (FBS; GIBCO). […]
readout_label: IC50
Write the figure, then the unit, nothing else.

Fill: IC50 (HT29) for this molecule CCCC(=O)[O-].[Na+] [Nabu, sodium butyrate]
4 mM

Fill: IC50 (HT29) for this molecule CCCC(CCC)C(=O)O [VPA, Valproic Acid]
10 mM
